melting point reference

So for CC1(O)C(O)C(CO)OC1n1ccc2c(N=[N+]=[N-])ncnc21 (stereo not given) , the logged melting point turned out to be 179 to 180 °C

So for Cc1cc2c(c3ccc(=O)[nH]c13)OC(CCCl)C2 (stereo not given) , the logged melting point turned out to be 209 to 211 °C

So for `CCCCCCc1c(Br)c(-c2ccccc2)n(-c2ccc(C)cc2)c1-c1ccccc1` , the logged melting point turned out to be 86 to 89 °C

So for `O=C1NCCNN1c1ccc(Cc2ccc(Cl)cc2)c(Cl)c1` , the logged melting point turned out to be 157 to 158 °C

So for `COc1cc(C(=O)NS(=O)(=O)c2ccccc2C)ccc1Cc1cccc2ccc(NC(=O)CC3CCCC3)cc12` , the logged melting point turned out to be 248 to 249 °C

So for CCCN(CCCCN1CCN(c2ccccc2)CC1)C1CCc2nc(N)sc2C1 (stereo not given) , the logged melting point turned out to be 156 °C

So for `O=C(O)[C@H](Cc1ccccc1)N[C@@H](CCc1ccccc1)C(=O)OCc1ccccc1` , the logged melting point turned out to be 141 to 144 °C

So for `Cc1c(Cl)cccc1NC(=O)C(C)(C)C` , the logged melting point turned out to be 113 to 114 °C

So for `O=Cc1cc([N+](=O)[O-])c(O)c(O)c1Cl` , the logged melting point turned out to be 193 to 195 °C

So for `COC(=O)CCc1cc2cc(C(F)(F)F)ccc2n1S(=O)(=O)c1ccc2nc(N)sc2c1` , the logged melting point turned out to be 135 to 136 °C

So for `CN1CCC(N(C)c2ncc3ncnc(Nc4ccc(Cl)c([N+](=O)[O-])c4)c3n2)CC1` , the logged melting point turned out to be 210 to 215 °C

So for `COc1ccc(C(=O)Nc2ccccc2)cc1NS(=O)(=O)Cc1ccccc1` , the logged melting point turned out to be 216 °C

So for `CC(=O)OCc1c(C(=O)C(=O)O)c2cc(-c3cccc(C)c3)ccc2n1Cc1ccc(C(C)(C)C)cc1` , the logged melting point turned out to be 91 to 92 °C

So for `O=C(O)c1ccc2c(c1)S(=O)(=O)c1ccccc1-2` , the logged melting point turned out to be 312 °C

So for `Nc1c(-c2ccc(C(F)(F)F)cc2F)nnn1Cc1ccc(S(N)(=O)=O)cc1` , the logged melting point turned out to be 180 to 181 °C

So for COC/C=C\c1cccc(C2(c3ccc(OC(F)F)cc3)N=C(N)N(C)C2=O)c1 (stereo not given) , the logged melting point turned out to be 41 to 44 °C

So for `CC(=O)OC(OC(C)=O)c1cccc(C(OC(C)=O)OC(C)=O)c1` , the logged melting point turned out to be 110 to 130 °C

So for `Cn1c(=S)ccc2ccccc21` , the logged melting point turned out to be 114 °C

So for O=C(O)CCCCCOc1ccc(C2OC3C(CO)OC(n4cnc5c(Cl)ncnc54)C3O2)cc1 (stereo not given) , the logged melting point turned out to be 127 to 129 °C

So for `CCOC(=O)Nc1c(C)cc(Cl)cc1C(=O)O` , the logged melting point turned out to be 124 to 126 °C

----------
melting point reference

A selection of reference data follows.
{"columns": ["Compound", "melting point"],
 "data": [
  ["Cc1c(C(=O)N(N)c2ccccc2)nn(-c2ccc(Cl)cc2Cl)c1-c1ccc(Cl)s1", "154 to 155 °C"],
  ["Fc1cc(Cl)ccc1-c1ncnc(C(F)F)c1Cl", "76 to 77 °C"],
  ["O=C(CNc1ccc2[nH]c(=O)oc2c1)N1CCC(Cc2ccc(F)cc2)CC1", "202 to 205 °C"]
]}

So for `CC(=O)NNc1nc(C(F)(F)F)nc(-c2ccc(C)cc2)c1-c1ccccc1` , the logged melting point turned out to be 147 to 152 °C

So for CC(COc1ccc2c(c1)CC/C(=C\c1cccs1)C2=O)n1ccnc1 (stereo unspecified) , the logged melting point turned out to be 160 to 162 °C

So for OCC1CCc2c([nH]c3ccc(Cl)cc23)C1 (stereo unspecified) , the logged melting point turned out to be 168 to 169 °C

So for `CC(C)N(CCN1C(=O)/C(=N/NC(=O)NC2CCCCC2)c2ccccc21)C(C)C` , the logged melting point turned out to be 164 to 166 °C

So for `CCOC(=O)c1nn2c(-c3ccc(OC)cc3)nnc2c2ccccc12` , the logged melting point turned out to be 180 to 182 °C

So for CC(=O)NC1C(NC(=O)NCCCl)OC(CO)C(O)C1O (stereo unspecified) , the logged melting point turned out to be 181 to 182 °C

So for `O=C(O)c1cc(=O)[nH]c2ccc(I)cc12` , the logged melting point turned out to be 361 to 363 °C

So for `O=C1COc2ccccc2C(=O)C1=CNc1ccccc1` , the logged melting point turned out to be 94 to 96 °C

----------
melting point reference

So for CC(=O)NC[C@@H]1C[C@H]1c1cccn2nc(C)cc12 (relative stereo) , the logged melting point turned out to be 100 to 101 °C

----------
Readout Name: melting point

A selection of reference data follows.
{"columns": ["Compound", "melting point"],
 "data": [
  ["Nc1c(F)c(F)cc(C(=O)O)c1F", "133 to 136 °C"],
  ["Cc1ccc2c(O)c3c(=O)[nH][nH]c(=O)c3nc2c1", "> 395 °C"]
]}

From here, focus on the item given below.
So for `COc1cccc(-c2noc3ccsc23)c1` , the logged melting point turned out to be 51 to 52 °C

----------
melting point reference

So for `CC(=O)OCCCCN(C)CCCN(C)C(=O)[C@@H]1CCCN1S(=O)(=O)c1ccc(Cl)c(COc2cccc3c(-n4ccnc4)cc(C)nc23)c1Cl` , the logged melting point turned out to be 88 °C

So for `CCOc1ccc(-c2c(C(=O)OC)c(C(=O)OC)c(O)c3cc(OC)c(OC)c(OC)c23)cc1OC` , the logged melting point turned out to be 159 °C

So for Cc1c(C)c2c(c(C)c1NC(=O)CC(C)(C)C)C(c1cccc(C=O)c1)CO2 (stereo not given) , the logged melting point turned out to be 178 to 179 °C

So for `O=C(O)c1ccc(N2C(=O)c3cccc([N+](=O)[O-])c3C2=O)cc1` , the logged melting point turned out to be > 300 °C

So for `Cc1c(Cc2ccccc2)[nH]c2ccccc2c1=O` , the logged melting point turned out to be 285 to 287 °C

So for `Cc1c(C(=O)Nc2ccc(OCC(C)(C)C)c(C#N)c2)cnn1C1CCCCC1` , the logged melting point turned out to be 126 to 128 °C

So for `C=Cc1nnc2ccc3ccccc3n12` , the logged melting point turned out to be 117 to 118 °C

So for `COc1ccc2c(c1)C(=O)C(=Cc1c[nH]c3ccccc13)CO2` , the logged melting point turned out to be 217 to 219 °C

So for `Nc1n[nH]c2ncnc(Nc3cccc(Cl)c3)c12` , the logged melting point turned out to be 232 to 234 °C

So for `Clc1cc(Cl)c(CBr)c(Cl)c1` , the logged melting point turned out to be 51 to 52 °C

----------
Readout Name: melting point

A selection of reference data follows.
{"columns": ["Compound", "melting point"],
 "data": [
  ["CCCC1=C(C)C(=O)c2c(oc(Cc3ccc(OC)cc3)c2C)C1=O", "60 to 61 °C"],
  ["O=C(O)C(CCN1C(=O)c2ccccc2C1=O)Oc1ccc(-c2ccc(-c3c(Cc4ccccc4)oc4ccccc34)cc2)cc1 (centres undefined)", "182 to 184 °C"]
]}

So for `Fc1ccccc1C1=CCc2nnc(Br)n2-c2ccc(Cl)cc21` , the logged melting point turned out to be 222 °C

So for `O=C(O)CSCc1nccc2ccccc12` , the logged melting point turned out to be 186 to 187 °C

----------
Readout Name: melting point

A selection of reference data follows.
{"columns": ["Compound", "melting point"],
 "data": [
  ["CCSC1(S)CCC2C3CCC4=CC(=O)C=CC4(C)C3(F)C(O)CC21C (centres undefined)", "239 to 242 °C"],
  ["COCc1cc(C(C)(C)C)cc(COC)c1SSc1c(COC)cc(C(C)(C)C)cc1COC", "94 to 95 °C"],
  ["COC(=O)C(C)c1ccc2cc(OC(=O)CO)ccc2c1 (centres undefined)", "49.5 to 52 °C"],
  ["Cc1ccc(-c2nc(Cc3cccc(CBr)c3)c(C)o2)cc1", "101 to 102 °C"]
]}

So for `Cc1cc(OCc2cnc(-c3ccc(C(F)(F)F)nc3)nc2C2CC2)ccc1OC(C)(C)C(=O)O` , the logged melting point turned out to be 185 to 186 °C

So for `Cc1cccc(C)c1Nc1nc(N)ns1` , the logged melting point turned out to be 180 °C

So for `O=[N+]([O-])c1ccc(-c2nnn(Cc3ccccc3)n2)cc1` , the logged melting point turned out to be 139 to 141 °C

So for CC(C)(C)OC(=O)NC(C)(C)c1ccc(-c2ccc3nn(C4CCCCO4)cc3c2-c2cc[nH]n2)cc1 (centres undefined) , the logged melting point turned out to be 99 to 105 °C

So for `CON(C)C(=S)Nc1ccc(OCCc2ccccc2)c(Cl)c1` , the logged melting point turned out to be 116 to 117 °C

So for Cn1c(CNCC2CCOC2)cc2cc(NC(=O)c3ccc(OC[C@@H]4CCCO4)cc3)ccc21 (some centres undefined) , the logged melting point turned out to be 128 to 129 °C

So for `C[C@@H]1CCC[C@H](C)N1CCNC(=O)CN1C(=O)CCC1(C)C` , the logged melting point turned out to be 94 to 94.5 °C

So for `COc1ccc(Oc2cn(C)cc(-c3cccc(C(F)(F)F)c3)c2=O)cc1` , the logged melting point turned out to be 119 to 120 °C

So for `Cc1c(CN2CCN(c3cccc(C(F)(F)F)c3)CC2)cc(-c2ccc(Cl)cc2)n1-c1ccc(Cl)cc1` , the logged melting point turned out to be 165 to 167 °C

So for `CCCCNC(=O)c1ncc[nH]1` , the logged melting point turned out to be 188 to 190 °C

So for `CC1(C)SCN(CCCCN2CCN(c3nc4ccccc4s3)CC2)C1=O` , the logged melting point turned out to be 99.5 to 100 °C

So for CCC(Oc1ccc([N+](=O)[O-])cc1)C(=O)NCc1ccccc1OC (centres undefined) , the logged melting point turned out to be 109 to 112 °C

So for `CCOc1nn(-c2cc(C(F)(F)F)ccn2)cc1CCCOc1cccc(OC(C)(C)C(=O)O)c1` , the logged melting point turned out to be 98 to 99 °C

So for COc1ccc(C2=NN(CCCCCCCCBr)C(=O)[C@H]3CCCC[C@@H]23)cc1OC (relative stereo) , the logged melting point turned out to be 58 to 60 °C

So for CN1CCCC1CCNNC(=O)N1CCC(c2[nH]nc3c2C(=O)c2c(NC(=O)NN4CCOCC4)cccc2-3)CC1 (centres undefined) , the logged melting point turned out to be 91 to 93 °C
